B1: CCDC6 (parent)
chain: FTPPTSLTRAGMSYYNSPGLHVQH

# Variants of: B1
# protocol-details: protein stability index of a GFP-peptide fusion (GPS, HEK-293T) (PSI 1-6); higher = more stable;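 note: lentivirally expressed fusions sorted by FACS into six bins by GFP to DsRed ratio, PSI derived from sequencing read proportions per bin multiplied by bin number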
# settings: c terminus: a fixed tail appended
Task for the reader: assign each of the following variants its reported protein stability index.
# answer = number (no unit)

For the variant shown here, T8G , give the reported protein stability index. 2.06

Return reported protein stability index; argument: V22R 2.01

Field request: protein stability index | item: F1K 2.49

Fill in: protein stability index of P3V is ___ 2.08

Could you share which protein stability index value was measured for Y15N ? 2.23

Endpoint output: protein stability index of P18W . Value? 2.62

Given S17L , state its recorded protein stability index. 1.78

For Q23M , what is its reported protein stability index? 1.31

# protein stability index lookup, item T2K 1.79

Would you kindly share the measured protein stability index for M12A ? 1.84

Item under review: G11V . Reported protein stability index? 1.56

Reported protein stability index for Q23Y : what is it? 2.06

// returns reported protein stability index for input V22S 1.74

Which protein stability index is listed for A10Y ? 2.72

Fill blank: measured protein stability index of the variant S6Y is ____. 1.84

Param item = P3W ; retrieve measured protein stability index. 1.21

Name the reported protein stability index value associated with the variant L7C 2.61

Which protein stability index value is on record for H24K ? 2.7

I am curious: what protein stability index value has been reported for Y14F ? 1.94

Look at this variant and give its reported protein stability index. L7S 1.7

What value of protein stability index has been reported for the following variant? V22A 1.7

May I ask what protein stability index has been recorded for T8V ? 1.85

Need protein stability index of F1E , thanks. 2.85

Requested read-out: protein stability index. Entry: Q23V 2.3

Endpoint output: protein stability index of M12C . Value? 1.68

Would you mind telling me what protein stability index value was observed for T5P ? 1.68

// returns reported protein stability index for input Y15G 2.37

Given the variant R9F , what is its reported protein stability index? 2.94

Fill blank: measured protein stability index of the variant T5D is ____. 1.89

Reported protein stability index for T8S : what is it? 1.83

Value lookup for protein stability index; key = P3Y 1.93

Form field: reported protein stability index of Q23H 1.88

What measured protein stability index goes with A10D ? 1.37

Would you kindly share the measured protein stability index for L7E ? 2.12

Could you share which protein stability index value was measured for M12V ? 1.99

What value of protein stability index has been reported for the following variant? S13I 1.69

For H21G , what is its reported protein stability index? 2.2

Looking for the measured protein stability index of Q23N , can you help? 1.2

I'd like to know its protein stability index. The variant in question is Y15V 2.89

Record request: protein stability index value, item T5I 1.84

Given S17Y , state its recorded protein stability index. 1.68

State the recorded protein stability index for this entry: G19D 2.22

Would you mind telling me what protein stability index value was observed for L20K ? 2.25

Field request: protein stability index | item: P18L 1.22

What does the record list as protein stability index for T2R ? 2.17

Which protein stability index value is on record for L7M ? 2.29

From: the supplement of paper PMC10567573
